# Tested on: SW-620
# experiment.notes: Induction of nitrite/nitrate production in human SW620 cells at 100 uM incubated for 24 hrs by Griess assay
# Type: functional, cell-based
Calls of active or inactive are those of the source. The rule behind the calls is not given here.

molecule | Activity
O=C(CCC(=O)Nc1ccn([C@@H]2O[C@H](CO)[C@@H](O)C2(F)F)c(=O)n1)NCCCCOc1no[n+]([O-])c1S(=O)(=O)c1ccccc1 | Active
CC(CCOC(=O)CCC(=O)Nc1ccn([C@@H]2O[C@H](CO)[C@@H](O)C2(F)F)c(=O)n1)Oc1no[n+]([O-])c1S(=O)(=O)c1ccccc1 (some centres undefined) | Active
O=C(CCC(=O)OCCCOc1no[n+]([O-])c1S(=O)(=O)c1ccccc1)Nc1ccn([C@@H]2O[C@H](CO)[C@@H](O)C2(F)F)c(=O)n1 | Active

----------
# Tested on: SW-620
# experiment.notes: Induction of nitrite/nitrate production in human SW620 cells at 100 uM incubated for 24 hrs by Griess assay
# Assay type: functional, cell-based
Calls of active or inactive are those of the source. The rule behind the calls is not given here.

record.smiles | tgt | Activity
O=C(CCC(=O)Nc1ccn([C@@H]2O[C@H](CO)[C@@H](O)C2(F)F)c(=O)n1)NCCCOc1no[n+]([O-])c1S(=O)(=O)c1ccccc1 | SW-620 | Active
O=C(CCC(=O)OCC#CCOc1no[n+]([O-])c1S(=O)(=O)c1ccccc1)Nc1ccn([C@@H]2O[C@H](CO)[C@@H](O)C2(F)F)c(=O)n1 | SW-620 | Active
O=C(CCC(=O)OCCCCOc1no[n+]([O-])c1S(=O)(=O)c1ccccc1)Nc1ccn([C@@H]2O[C@H](CO)[C@@H](O)C2(F)F)c(=O)n1 | SW-620 | Active
